Experiment summary: PK in rat plasma
Format: in vivo
Applied conditions: rat; Table 38; IV plasma, 1.13 mg/kg
Readout name: Cmax

-- ask Recorded Cmax for "COCCN[C@H]1CS(=O)(=O)C[C@@H]1S(=O)(=O)c1ccc(Cl)cc1" , please?
-- reply 524 ng/mL

###

Test system: ERα (Homo sapiens)
Construct: expressed in transfected cells
Sequence (P03372 1-595): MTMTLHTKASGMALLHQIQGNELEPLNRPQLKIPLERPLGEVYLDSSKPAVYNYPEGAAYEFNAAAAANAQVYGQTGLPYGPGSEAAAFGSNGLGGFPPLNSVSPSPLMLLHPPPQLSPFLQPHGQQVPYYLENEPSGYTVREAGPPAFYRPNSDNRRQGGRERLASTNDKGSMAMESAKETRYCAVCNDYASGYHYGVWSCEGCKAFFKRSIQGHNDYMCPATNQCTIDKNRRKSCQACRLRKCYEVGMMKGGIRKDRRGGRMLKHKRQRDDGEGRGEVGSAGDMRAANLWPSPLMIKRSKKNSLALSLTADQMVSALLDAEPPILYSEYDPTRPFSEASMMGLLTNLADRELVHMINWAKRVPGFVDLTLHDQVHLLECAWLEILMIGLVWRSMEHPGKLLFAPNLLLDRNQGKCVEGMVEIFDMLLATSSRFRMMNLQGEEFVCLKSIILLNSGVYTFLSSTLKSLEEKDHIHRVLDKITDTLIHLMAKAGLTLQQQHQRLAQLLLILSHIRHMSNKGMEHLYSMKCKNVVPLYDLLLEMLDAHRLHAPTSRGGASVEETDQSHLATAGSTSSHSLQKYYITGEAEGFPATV
Experiment summary: Counterscreening, Firefly signal with ERα transient transfection (Firefly_ERa)
Type: cell-based
Applied conditions: 10 uM
Readout name: Firefly ERalpha transient, cmpd/DMSO (mean)

The cases that follow already have their Firefly ERalpha transient, cmpd/DMSO (mean) on record.
Compound	Recorded measurement
COc1ccc2nc(C(F)(F)F)c(C#N)c(NCCc3ccc(Cl)cc3)c2c1	0.5
O=c1cccc2n1CC1CC2CN(c2nc(N3CCOCC3)nc(N3CCOCC3)n2)C1 (centres unmarked)	1.2
Cc1cc(-c2ccccc2)nc(Nc2nc(-c3ccccc3)c(CC(=O)O)s2)n1	1.5
COc1ccc(-c2cc3n(n2)C(N)=C(C#N)C(c2cccn2C)(C(F)(F)F)N3)cc1OC (centres unmarked)	0.7
O=c1cccc2n1CC1CC2CN(c2nc(NCCC3=CCCCC3)nc(N3CCOCC3)n2)C1 (centres unmarked)	0.6

For each listed entry, give its Firefly ERalpha transient, cmpd/DMSO (mean).
1. N#CC1=C(N)n2nc(-c3ccccc3)cc2NC1(c1ccc(N2CCOCC2)cc1)C(F)(F)F (centres unmarked)
2. CCOC(=O)c1cnc2c(Cl)cc(Cl)cc2c1NCCCN(C)C
3. COC(=O)CNc1c(C#N)c(C(F)(F)F)nc2ccc(OC)cc12
4. N#Cc1c(C(F)(F)F)nc2ccc(Cl)cc2c1NC1CC1
5. CC1CCN(c2nc(NCCN3CCOCC3)nc(N3CC4CC(C3)c3cccc(=O)n3C4)n2)CC1 (centres unmarked)
6. CCCNc1nc(N2CCOCC2)nc(N2CC3CC(C2)c2cccc(=O)n2C3)n1 (centres unmarked)
7. CCOC(=O)c1cnc2c(Cl)cc(Cl)cc2c1NCCCN1CCCCC1

-- reply
0.4
2.2
0.8
0.3
1.4
1.4
1.5

Field: Firefly ERalpha transient, cmpd/DMSO (mean). Fill in for each record below.
1. Cc1ccc(CCCNc2c(C#N)c(C(F)(F)F)nc3ccc(Oc4ccccc4)cc23)cc1
2. COc1nc(NCCC2=CCCCC2)nc(N2CC3CC(C2)c2cccc(=O)n2C3)n1 (centres unmarked)
3. COC(=O)c1[nH]c2c(c(C(F)(F)F)nc3ccc(OC)cc32)c1N
4. N#Cc1c(C(F)(F)F)nc2ccc(Oc3ccccc3)cc2c1NCCc1ccc(Cl)cc1
5. CCOC(=O)Cc1sc(Nc2nc(C)cc(C)n2)nc1-c1ccccc1
6. Cc1cc(C)c2ncc(C(=O)O)c(NCCCN(C)C)c2c1

-- reply
1.8
0.9
1.0
0.4
0.5
1.1
